- System Name: Rap guanine nucleotide exchange factor 3 (Homo sapiens) (UniProt O95398)
- Sequence (O95398 whole entry, looked up): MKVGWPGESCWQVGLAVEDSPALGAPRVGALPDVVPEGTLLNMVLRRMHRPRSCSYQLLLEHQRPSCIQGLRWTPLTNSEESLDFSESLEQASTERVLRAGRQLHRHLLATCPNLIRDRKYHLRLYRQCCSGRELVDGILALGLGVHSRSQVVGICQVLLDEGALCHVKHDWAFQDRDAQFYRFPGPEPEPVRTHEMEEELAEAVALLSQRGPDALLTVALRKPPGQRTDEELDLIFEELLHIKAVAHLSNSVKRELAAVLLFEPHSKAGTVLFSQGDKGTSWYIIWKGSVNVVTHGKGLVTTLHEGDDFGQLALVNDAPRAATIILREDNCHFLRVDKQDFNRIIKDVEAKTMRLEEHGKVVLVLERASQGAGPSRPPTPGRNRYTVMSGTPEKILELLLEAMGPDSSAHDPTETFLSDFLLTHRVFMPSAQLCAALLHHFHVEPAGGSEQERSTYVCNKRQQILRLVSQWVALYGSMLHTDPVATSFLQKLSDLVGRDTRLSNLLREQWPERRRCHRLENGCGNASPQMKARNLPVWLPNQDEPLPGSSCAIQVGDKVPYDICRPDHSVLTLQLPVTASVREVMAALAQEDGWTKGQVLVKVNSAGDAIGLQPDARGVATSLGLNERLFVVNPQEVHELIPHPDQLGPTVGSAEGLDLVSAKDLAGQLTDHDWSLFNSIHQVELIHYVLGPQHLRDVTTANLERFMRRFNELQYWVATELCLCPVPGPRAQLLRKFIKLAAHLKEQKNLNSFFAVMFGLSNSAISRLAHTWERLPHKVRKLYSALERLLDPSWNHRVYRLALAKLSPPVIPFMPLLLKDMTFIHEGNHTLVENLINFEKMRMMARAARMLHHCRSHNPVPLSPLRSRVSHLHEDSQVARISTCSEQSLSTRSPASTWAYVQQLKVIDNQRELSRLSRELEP
- Measurement Notes: Counterscreen qHTS for antagonist of cAMP-regulated guanine nucleotide exchange factor 3 (EPAC1) (AID 1645888);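 note: fluorescence loss as bound BODIPY-GDP is released from Rap1B; % of control where 0% means no effect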
- Condition Info: Rap1B-BODIPY-GDP nucleotide exchange, fluorescence; series mostly up to 154 µM
Records with an inconclusive call do not appear. The source made the active and inactive calls. Calls come from the whole dose curve; as a rule, active = well fitted inhibition curve with a large enough effect; inconclusive = small, poorly fitted or top-dose-only effect; inactive = no such curve, though single readings can be large or run the other way.
Assay Metric: activity change, negative = inhibition

Known results for molecules:
1) Cc1cc(C(=O)COC(=O)C2COc3ccccc3O2)c(C)n1CC1CCCO1 (stereo not drawn) = inactive
2) O=C(c1ccc(Br)o1)N1CCN(c2ccc3nnc(-c4ccc(F)cc4)n3n2)CC1 = -4.8% [at 30.8 µM] (inactive)
3) CCOC(=O)c1[nH]c(C)c(C(=O)NC(C)(C)C)c1C = inactive
4) C/C(C/C(C)=C1/SC(=S)NC1=O)=C1\SC(=S)NC1=O = inactive
5) Cc1ccc(C)c(-n2c3nc(=O)[nH]c(=O)c-3cc3cc([N+](=O)[O-])ccc32)c1 = inactive
6) N#CC(C(=O)NCc1ccco1)c1nc2ccccc2nc1N1CCOCC1 (stereo not drawn) = -11.6% [at 30.8 µM] (inactive)
7) C=CCn1c(NC(=O)c2ccccc2Cl)c(C#N)c2nc3ccccc3nc21 = -7.8% [at 30.8 µM] (inactive)
8) CCCCOc1ccccc1Cn1c(=O)oc2ccc(C)cc21 = inactive
9) O=C(Cn1c(=O)oc2cc(S(=O)(=O)N3CCCCC3)ccc21)N1CCc2ccccc2C1 = inactive
10) COc1ccccc1/C=C/C=C1\Oc2c(ccc(O)c2CN(C)C)C1=O = inactive

[ask] Give a short answer stating reported activity change, negative = inhibition for CCCCOc1ccccc1Cn1c(=O)sc2ccccc21 .
[reply] inactive

[ask] Give a short answer stating reported activity change, negative = inhibition for Cc1cc(OCCCSc2nc(-c3ccc(C(C)(C)C)cc3)nc3cc(=O)[nH]n23)ccc1Cl .
[reply] inactive

[ask] Give a short answer stating reported activity change, negative = inhibition for COc1ccccc1Cc1nc2ccccc2nc1SCC(=O)Nc1ccccc1C(F)(F)F .
[reply] inactive

[ask] Give a short answer stating reported activity change, negative = inhibition for CCOc1ccc(C(=O)Nc2ccc3c(c2)N(C(C)=O)CCC3)cc1OCC .
[reply] inactive

[ask] Give a short answer stating reported activity change, negative = inhibition for COC(=O)c1cc2sc(Cl)cc2n1Cc1c(C)cc(C)cc1C .
[reply] inactive

[ask] Give a short answer stating reported activity change, negative = inhibition for NS(=O)(=O)c1ccc(NC2=CC(=O)C(=O)c3ccccc32)cc1 .
[reply] inactive

[ask] Give a short answer stating reported activity change, negative = inhibition for COc1ccccc1-c1ccc(Nc2cccc(C(F)(F)F)c2)nn1 .
[reply] inactive
